- Tested on: SK-MEL-5 melanoma
- assay-protocol: NCI tumour cell line growth inhibition, 48 h; in the data active = GI50 below about 0.43 µM; inactive = the rest
The reply should be one of these categories: active, inactive

Completed entries (count: 8):
| compound | class-assignment |
| --- | --- |
| C#Cc1cccc(NC(=O)c2cccc(NC(=O)CCl)c2)c1 | inactive |
| O=C(Nc1cccc(C(F)(F)F)c1)c1ccc(NC2=C(Cl)C(=O)N(Cc3ccccc3)C2=O)cc1 | inactive |
| O=C1/C(=C/c2ccc(F)cc2)CN(C(=O)C(Cl)Cl)C/C1=C\c1ccc(F)cc1 | active |
| CC1(C)CCc2c(c(N=Nc3ccccc3F)c3ccccc3c2O)O1 | inactive |
| CCn1c(SCC(=O)Nc2cc(C(F)(F)F)ccc2Cl)nc2ccccc2c1=O | inactive |
| CCN1C(=O)N(CC)C2C1NN=c1s/c(=C\c3ccc(C(F)(F)F)cc3)c(=O)n12 (stereo not drawn) | inactive |
| O=C(Nc1ccccc1Cl)c1ccc(NC2=C(Cl)C(=O)N(C3CCCCC3)C2=O)cc1 | inactive |
| O=[N+]([O-])c1ccc(N=Nc2c(Cl)cc(O)cc2Cl)cc1 | inactive |

What classification did Cc1ccc2[nH]c(C(=O)NN3C(=O)C(C)SC34CCC(C)CC4)c(-c3ccccc3)c2c1 (stereo not drawn) end up with in this test? inactive

And what about the compound `O=C(CCCC(=O)N/N=C/c1cc(Cl)ccc1O)N/N=C\c1cc(Cl)ccc1O` ? inactive

Similarly, `Cc1nc2ccccc2c(/C=C/c2ccccc2)c1C(=O)/C=C/c1ccc(C(F)(F)F)cc1` ? inactive

Try this compound next: `COc1cc2c(cc1O)c(=O)n(CCN(C)C)c1c3cc4c(cc3ncc21)OCO4` active

Same again, this time with `CC(=O)Nc1ccc(OC(C)=O)cc1` active

###

Would you kindly list TGI for each of these molecules?
- Tested on: EKVX NSCLC
- assay-protocol: NCI tumour cell line growth inhibition, 48 h

Below are worked cases with known answers.
| molecule | TGI |
| --- | --- |
| Cc1cn(C2CC(N=[N+]=[N-])C(CO)O2)c(=O)n(CCCCBr)c1=O (stereo unspecified) | > 100 µM |
| O=C1CCC2(CC1CCS(=O)c1ccccc1)OCCO2 (stereo unspecified) | > 100 µM |
| O=C1CCCCCCCCCCC1CN1CCOCC1 (stereo unspecified) | > 100 µM |
| N#Cc1ccccc1NC(=O)C(=O)C(C(=O)c1ccncc1)C1OC(=O)c2ccccc21 (stereo unspecified) | > 100 µM |
| COc1cc2c(/C=C3/C(=O)Nc4ccc(O)cc43)c(Cl)n(Cc3cc(OC)c(OC)c(OC)c3)c2cc1C | > 38.5 µM |
| S=C1SCN(Cc2ccccc2)CN1Cc1ccccc1 | > 57.8 µM |
| O=c1[nH]nc(CNc2ccc(Cl)cc2Cl)c2ccccc12 | 85.7 µM |
| Cn1c2ccccc2c2c3c(c4c5ccccc5n(C5OC(CO)C(O)C(O)C5O)c4c21)C(=O)OC3=O (stereo unspecified) | > 100 µM |
| Oc1ccc(C2Oc3cc(O)cc4c3C2c2cc(O)cc3c2C(c2cc(O)cc5c2C4C(c2ccc(O)cc2)O5)C(c2ccc(O)cc2)O3)cc1 (stereo unspecified) | > 25 µM |
| C=CCOc1ccc(N)c([N+](=O)[O-])c1 | > 100 µM |

Hi! Can you tell me TGI for each of these molecules?
1. N#CC(C(=O)CCC(=O)Nc1cccc(C(F)(F)F)c1)c1ccccc1 (stereo unspecified)
2. CCOC(=O)[C@@H](NC(=O)OC(C)(C)C)[C@@H](O)C(=O)OCC
3. O=c1oc2cc(O)ccc2c2oc3cc(O)ccc3c12
4. CCCCCCCC(=O)OCC1OC(n2cc(F)c(=O)[nH]c2=O)C(N)C(O)C1O (stereo unspecified)
5. COc1ccc(CNCCCN2C(=O)c3ccc4c5c(ccc(c35)C2=O)C(=O)N(CCCNCc2ccc(OC)c(OC)c2OC)C4=O)c(OC)c1OC
6. Cc1nn(C(=O)Cc2ccccc2)c2c1C(c1ccc([N+](=O)[O-])cc1)SC(N)=N2 (stereo unspecified)
7. C#CC(C)(C)OCCCCOc1cc(O)c2c(=O)c3ccccc3n(C)c2c1
8. NNc1nc2ccccc2o1

> 100 µM
> 100 µM
> 125 µM
> 100 µM
0.176 µM
> 100 µM
> 100 µM
> 100 µM

Would you mind listing TGI for each of the following molecules?
1. CN=C1CN=C(OP(=O)(N2CCOCC2)N2CCOCC2)c2cc(Cl)ccc2N1
2. Cc1c(C(=O)Nc2ccccc2)nnn1-c1ccnc2cc(C(F)(F)F)ccc12
3. [C-]#[N+]C(=C\c1ccc(O)cc1)/C(=C/c1ccc(O)cc1)[N+]#[C-]

> 100 µM
> 100 µM
> 100 µM

###

Answer each item with its documented TGI.
- Tested on: LXFL 529 NSCLC
- assay-protocol: NCI tumour cell line growth inhibition, 48 h

Look over these answered cases.
| molecule | TGI |
| --- | --- |
| N#CC(C(=O)CCC(=O)Nc1cccc(C(F)(F)F)c1)c1ccccc1 (stereo not given) | > 100 µM |
| Cc1cccc(N=Cc2ccc(N(CCC#N)S(=O)(=O)c3ccccc3)cc2C)c1 | > 100 µM |
| CSc1ccc2c(cc1=O)C(NC(=O)c1ccccc1)CCc1cc(O)c(O)c(O)c1-2 (stereo not given) | 60.8 µM |
| N#Cc1ccccc1NC(=O)C(=O)C(C(=O)c1ccncc1)C1OC(=O)c2ccccc21 (stereo not given) | > 100 µM |

For each listed entry, give its TGI.
1. Cc1cc2c(=O)c(C)n[nH]c2c(C#N)c1C
2. C1C[OH+]CCNCC[OH+]CC[OH+]CCN1.N.[Cl-].[Pt+4]
3. CC1SC2=NC3=C(c4ccccc4C3=O)C(c3ccccc3Cl)N2C1=O (stereo not given)
4. O=C1NC2(CCCC2)C2CCCCC12O (stereo not given)
5. CC(C)C1=CC2=CC[C@@H]3[C@](C)(CCC[C@@]3(C)C(=O)O)[C@H]2CC1

1. > 100 µM
2. > 100 µM
3. > 100 µM
4. > 100 µM
5. > 100 µM

###

- Tested on: OVCAR-3 ovarian
- assay-protocol: NCI tumour cell line growth inhibition, 48 h
Please go through the items and note down their TGI.

Reference set (3 entries):
| compound | recorded-measurement |
| --- | --- |
| CCOC(=O)[C@@]1(C(C)=O)CC(C)=C(C)C[S@]1=O | > 100 µM |
| N#Cc1sc2c(c1OC(=O)c1ccc(Cl)cc1Cl)c(=O)n(-c1ccccc1)c(=S)n2-c1ccccc1 | 76.3 µM |
| COC(=O)c1sc2c(=O)c(C(=O)OC)c(C(=O)OC)sc2c(=O)c1C(=O)OC | > 100 µM |

Could you tell me TGI for each of these compounds? They are listed below.
1. CCOC(=O)/C(=C\c1cn(C(C)=O)c2ccccc12)P(C)(=O)OCC (stereo not drawn)
2. COc1ccc(C(=O)CCN(C)C)c2ccccc12
3. CCOC(=O)C(NC(=O)c1ccccc1)(c1ccc(S(=O)(=O)Nc2onc(C)c2C)cc1)C(F)(F)F (stereo not drawn)

["> 100 µM", "36.9 µM", "> 100 µM"]

Give measured TGI for every item shown.
1. COc1ccc(CNCCCN2C(=O)c3ccc4c5c(ccc(c35)C2=O)C(=O)N(CCCNCc2ccc(OC)c(OC)c2OC)C4=O)c(OC)c1OC
2. O=C(CC1(O)C(=O)Nc2ccccc21)c1ccc(Cl)cc1Cl (stereo not drawn)
3. O=C1CCCCCCCCCCC1CN1CCOCC1 (stereo not drawn)
4. CC12C3CC4C5CC(C(C53)[C@@H]1NCc1ccccc1)C42 (stereo partly drawn)
5. N#CC1(N2CCCC2)CCC2(CC1)OCCO2

0.23 µM
> 100 µM
> 100 µM
> 100 µM
> 100 µM

Give TGI for each of the items listed below.
1. CN=C1CN=C(OP(=O)(N2CCOCC2)N2CCOCC2)c2cc(Cl)ccc2N1
2. O=C(Nc1ccccc1Cl)c1ccc(NC2=C(Cl)C(=O)N(C3CCCCC3)C2=O)cc1
3. Cc1oc2nc(N(C)C)nc(NN)c2c1C
4. CC(C)c1cccc(C(C)C)c1NC(=O)C(=O)C1CCC2=C(Sc3ccccc3N2)C1=O (stereo not drawn)
5. O=C1NC2(CCCC2)C2CCCCC12O (stereo not drawn)

1: > 100 µM; 2: 28.4 µM; 3: > 100 µM; 4: > 100 µM; 5: > 100 µM

For each listed entry, give its TGI.
1. Cc1ccc(N=C2OP(=O)(Nc3ccc(C)cc3)Oc3ccccc32)cc1 (stereo not drawn)
2. COc1ccc(NC(=O)C(C#N)=C(SC)SC)cc1
3. CC(=O)Nc1ccc(OC(C)=O)cc1
4. O=C(C=Nc1ccccc1S)c1ccco1
5. Brc1ccc(C=NC23CC4CC(CC(C4)C2)C3)cc1
6. CN/N=C(\C(=O)Nc1ccc(C(F)(F)F)cc1[N+](=O)[O-])C(c1cnc2ccc([N+](=O)[O-])cc2n1)[N+](=O)[O-] (stereo not drawn)
7. O=S(=O)(O)c1cc(S(=O)(=O)O)c2c(N=Nc3ccc(S(=O)(=O)O)c4ccccc34)c(O)ccc2c1

1. > 100 µM
2. > 100 µM
3. < 0.0134 µM
4. 31.2 µM
5. > 100 µM
6. > 100 µM
7. > 100 µM

meta.source: PubChem BioAssay (NCI)
